Where do these numbers come from? They come from patent US20060281789A1.

For each entry below, report its inhibition at 3.16 µM value.
# System: MV-4-11
# PROTOCOL: Cytostatic activity on human acute myeloid leukemia cell line MV-4-11 (WST-1)
# Format: cell-based
# CONDITION INFO: MV4-11, 3.16 μmol/L, 72 hours, read-out: MV-4-11 (%) cytostatic rate
Structures can show the parent of a compound that is named as a salt.
One number for each entry, in %.

> print(dat)
                                   compound        measured.metric  endpoint.value
1  C(=C\c1n[nH]c2ccccc12)/c1ccc(N2CCNCC2)cc1.Cl [Compound 53, hydrochloride]  inhibition at 3.16 µM              97
2  CC(C)N(CCOc1ccc(/C=C/c2n[nH]c3ccccc23)cc1)C(C)C [Compound 7, hydrochloride]  inhibition at 3.16 µM              97

Need inhibition at 3.16 µM for each of these compounds.
1. C(=C\c1n[nH]c2ccccc12)/c1ccc(OCCCN2CCCCC2)cc1 [Compound 9, hydrochloride]
2. CC(=O)N1CCN(c2ccc(/C=C/c3n[nH]c4ccccc34)cc2)CC1
3. C(=C\c1n[nH]c2ccccc12)/c1ccc(OCCN2CCOCC2)cc1 [Compound 5, hydrochloride]
4. CCN(CC)CCOc1ccc(/C=C/c2n[nH]c3ccccc23)cc1 [Compound 6, hydrochloride]
5. N#Cc1cc(/C=C/c2n[nH]c3ccccc23)ccc1OCCN1CCOCC1

Reply text:
1. 97
2. 98
3. 91
4. 97
5. 98
